- Test system: MS2 coat protein
- METHOD_SUMMARY: apparent KD of MS2 coat protein; designed switch direction (-1 OFF switch, 1 ON switch): -1; higher = weaker reporter binding
- REPORTED_CONDITIONS: input ligand: none
Reported apparent KD of MS2 coat protein values are given for each entry in this list.

SEQUENCE: GAAAACGUAGGAUAUUAAUACUUAGACAUGAGGAUCACCCAUGUUUGGUGGGUUUAAGAAUGAGAAGGGCGAUGAA [EX5 #7] (Eterna round: R97, puzzle: Exclusion 5)
apparent KD of MS2 coat protein: 189 nM
//
SEQUENCE: AAGAACUUAGGAUAUACAUGAGGAUCACCCAUGUAGCUUCACUUGGGCCUGAGCCCGUGUAGAAGGAAGAAAAU [Arge] (Eterna round: R96, puzzle: Exclusion 3)
apparent KD of MS2 coat protein: 73.5 nM
//
SEQUENCE: CACGAAAUGUGAGGAUAUGUGCGACAAAGUUGCACAGAAGGCACAUGAGGAUCACCCAUGUAAGCUAGGUCGAAAGACCUAGCG [Omei Exc(NG)1 Av2] (Eterna round: R96, puzzle: Exclusion NG 1)
apparent KD of MS2 coat protein: 89.8 nM
//
SEQUENCE: GCCCUUAUUGUUAGGAUAUAACGGAAAUACAACCGUUAGAAGGAACAUGAGGAUCACCCAUGUGCCAUACAGCC [Eternabot (Original) Solution 39] (Eterna round: R97, puzzle: Brourd's mod of Exclusion 4)
apparent KD of MS2 coat protein: 29.5 nM
//
SEQUENCE: UGAGUGCUGCGAGGAUAUACAUGAGGAUCACCCAUGUGGAUGUCUGAGGCUUUGCCUCAGACGAUGUAGAAGGCGCAGUACUCU [JL ENG2 1.20] (Eterna round: R96, puzzle: Exclusion NG 2)
apparent KD of MS2 coat protein: 22.1 nM
